// data source = patent US11891360B2

system: UniProt P28223
Sequence (P28223 whole entry): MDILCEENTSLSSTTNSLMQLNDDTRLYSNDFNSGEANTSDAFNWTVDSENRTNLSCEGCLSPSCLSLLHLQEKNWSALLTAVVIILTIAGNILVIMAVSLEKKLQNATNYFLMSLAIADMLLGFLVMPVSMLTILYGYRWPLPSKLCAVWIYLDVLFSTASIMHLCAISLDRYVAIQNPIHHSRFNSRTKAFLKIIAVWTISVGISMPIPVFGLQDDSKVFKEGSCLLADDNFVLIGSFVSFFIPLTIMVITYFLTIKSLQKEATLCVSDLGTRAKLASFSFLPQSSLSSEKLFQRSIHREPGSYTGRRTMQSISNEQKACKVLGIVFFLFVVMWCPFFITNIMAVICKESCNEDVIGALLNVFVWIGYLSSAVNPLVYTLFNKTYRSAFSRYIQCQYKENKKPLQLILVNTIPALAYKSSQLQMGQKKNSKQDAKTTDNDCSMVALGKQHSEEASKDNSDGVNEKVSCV
method_notes: Calcium mobilization (Fluo-8) assay in CHO-K1 cells stably expressing 5-HT2A (+5-HT2A)
study_conditions: CHO-K1/5-HT2A (+5-HT2A) cells; four parameter logistic curve fitting, GraphPad Prism; read-out: EC50 of relative Fluo-8 fluorescence (calcium mobilization)

# molecule, system, EC50 [µM]
data = [
    ("CN(C)CCc1c[nH]c2cccc(O[C@@H]3OC(CO)[C@H](O)C(O)C3O)c12 (stereo partly shown) [VI]", "UniProt P28223", 3.81),
]
